# Target: Voltage-gated inwardly rectifying potassium channel KCNH2 (Homo sapiens) (UniProt Q12809)
# Sequence (Q12809 whole entry, looked up): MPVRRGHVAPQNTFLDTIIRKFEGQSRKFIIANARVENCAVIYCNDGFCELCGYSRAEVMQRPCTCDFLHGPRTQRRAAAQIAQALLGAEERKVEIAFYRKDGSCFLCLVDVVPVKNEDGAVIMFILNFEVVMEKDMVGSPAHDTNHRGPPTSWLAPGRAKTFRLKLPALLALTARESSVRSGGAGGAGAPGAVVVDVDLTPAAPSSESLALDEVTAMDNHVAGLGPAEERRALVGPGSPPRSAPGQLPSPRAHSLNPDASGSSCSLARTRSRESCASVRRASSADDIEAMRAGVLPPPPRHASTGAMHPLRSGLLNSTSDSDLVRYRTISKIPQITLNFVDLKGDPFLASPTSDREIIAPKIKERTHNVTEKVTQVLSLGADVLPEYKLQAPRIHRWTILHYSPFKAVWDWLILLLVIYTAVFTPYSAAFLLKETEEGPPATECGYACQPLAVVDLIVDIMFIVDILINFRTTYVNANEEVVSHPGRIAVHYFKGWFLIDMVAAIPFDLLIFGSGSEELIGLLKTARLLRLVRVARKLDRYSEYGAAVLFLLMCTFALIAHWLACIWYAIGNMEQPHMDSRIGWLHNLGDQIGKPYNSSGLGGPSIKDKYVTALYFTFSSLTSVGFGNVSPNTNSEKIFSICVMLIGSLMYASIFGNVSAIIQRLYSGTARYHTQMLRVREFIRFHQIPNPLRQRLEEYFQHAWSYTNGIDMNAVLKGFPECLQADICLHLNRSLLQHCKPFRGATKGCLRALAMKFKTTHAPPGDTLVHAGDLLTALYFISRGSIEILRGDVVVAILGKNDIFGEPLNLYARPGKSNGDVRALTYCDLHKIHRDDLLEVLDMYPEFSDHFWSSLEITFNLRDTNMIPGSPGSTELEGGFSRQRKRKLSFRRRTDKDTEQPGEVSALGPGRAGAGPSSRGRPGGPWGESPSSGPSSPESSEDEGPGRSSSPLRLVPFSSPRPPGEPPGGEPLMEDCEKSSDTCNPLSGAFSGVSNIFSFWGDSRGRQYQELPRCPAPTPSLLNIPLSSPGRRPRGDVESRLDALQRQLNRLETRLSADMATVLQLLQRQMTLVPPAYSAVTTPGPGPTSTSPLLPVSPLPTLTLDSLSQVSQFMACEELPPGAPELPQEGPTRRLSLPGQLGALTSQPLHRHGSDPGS
# Experimental Protocol: qHTS Assay for Small Molecule Inhibitors of the Human hERG Channel Activity (AID 588834);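 note: U2OS cells transduced with hERG by BacMam; top concentration of the series differs between compounds; lower thallium flux fluorescence means stronger hERG block; nearly all actives have a fitted effect of over 50% in size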
# Measurement Context: U2OS BacMam hERG, FluxOR thallium flux fluorescence; series mostly up to 46.1 µM
Inconclusive results are not listed. Activity calls are given as the source filed them. Calls come from the whole dose curve; as a rule, active = well fitted inhibition curve with a large enough effect; inconclusive = small, poorly fitted or top-dose-only effect; inactive = flat fitted curve, though single readings scatter.
Endpoint Name: outcome

- Compound: "COc1ccc(CN2CCNCC2)c(OC)c1OC"
  Endpoint Name: "outcome"
  Value Measured: "inactive"
- Compound: "CCCC[N+]1(C)[C@@H]2CC(OC(=O)[C@H](CO)c3ccccc3)C[C@H]1[C@@H]1O[C@@H]12 (some centres undefined)"
  Endpoint Name: "outcome"
  Value Measured: "inactive"
- Compound: "CN(C)C(=O)Oc1cc(OC(=O)N(C)C)cc(C(O)CNC(C)(C)C)c1 (centres undefined)"
  Endpoint Name: "outcome"
  Value Measured: "inactive"
- Compound: "C[N+](C)(C)CCOC(=O)C(O)(c1ccccc1)c1ccccc1"
  Endpoint Name: "outcome"
  Value Measured: "inactive"

====

# Measurement Context: Ebola virus entry assay, blue channel fluorescence
The source made the active and inactive calls.
Valid outcomes are listed here; reply with one: class 1 (active), class 0 (inactive)

Previously resolved entries follow.
- Molecule: "CCCCCCCCCCOCC(O)CN (stereo unspecified)"
  Class Assignment: "class 1"
- Molecule: "C=C1C[C@H]2[C@@H]3C=C(C)C4=CC(=O)CC[C@]4(C)[C@H]3CC[C@]2(C)[C@@]1(OC(C)=O)C(C)=O"
  Class Assignment: "class 0"
- Molecule: "CC(=O)OCC(=O)[C@@]12N=C(C)O[C@@H]1C[C@H]1[C@@H]3CCC4=CC(=O)C=C[C@]4(C)[C@H]3[C@@H](O)C[C@@]12C"
  Class Assignment: "class 0"
- Molecule: "CN1C[C@@H](NS(=O)(=O)N(C)C)C[C@@H]2c3cccc4c3c(cn4C)C[C@H]21"
  Class Assignment: "class 0"
- Molecule: "Oc1ccc([C@H]2CNCc3c2ccc(O)c3O)cc1O"
  Class Assignment: "class 1"

Per the records of this test, what outcome belongs to `CNC(=O)c1c(I)c(NC(=O)CCCCC(=O)Nc2c(I)c(C(=O)O)c(I)c(C(=O)NC)c2I)c(I)c(C(=O)O)c1I` ? class 0

Per the records of this test, what outcome belongs to `CC(=O)CCC(=O)O` ? class 0

Per the records of this test, what outcome belongs to OC(CN1CCC(Cc2ccc(F)cc2)CC1)c1ccc(Cl)cc1 (stereo unspecified) ? class 0

Per the records of this test, what outcome belongs to `CCCCc1ccc2nc(NC(=O)OC)[nH]c2c1` ? class 1

Per the records of this test, what outcome belongs to `C[C@H](CCC(=O)O)[C@H]1CC[C@H]2[C@@H]3C(=O)C[C@@H]4CC(=O)CC[C@]4(C)[C@H]3CC(=O)[C@]12C` ? class 0

Per the records of this test, what outcome belongs to `NC1(c2ccc(-c3nc4ccn5c(=O)[nH]nc5c4cc3-c3ccccc3)cc2)CCC1` ? class 1

Per the records of this test, what outcome belongs to `CCOC(=O)C(C)(C)Oc1ccc(Cl)cc1` ? class 0

Per the records of this test, what outcome belongs to `CCCC(=O)O[C@]1(C(=O)CC)CC[C@H]2[C@@H]3CCC4=CC(=O)CC[C@]4(C)[C@H]3[C@@H](O)C[C@@]21C` ? class 0

Per the records of this test, what outcome belongs to `C/C=C/c1ccc(OC)cc1` ? class 0

Per the records of this test, what outcome belongs to CC1CCc2cc(F)cc3c(=O)c(C(=O)O)cn1c23 (stereo unspecified) ? class 0

====

# Experimental Protocol: qHTS of pediatric cancer cell lines to identify multiple opportunities for drug repurposing: Primary screen for BT-12 cells (AID 1347101); note: nearly all actives have a fitted effect of over 25% in size
# Measurement Context: BT-12 viability, CellTiter-Glo luminescence, 48 h; series mostly up to 57.3 µM
Records with an inconclusive call do not appear. Activity calls are given as the source filed them. The call rests on the fitted dose curve; in most records, active means well fitted cell-killing curve with a large enough effect; inconclusive means small, poorly fitted or top-dose-only effect; inactive means flat fitted curve, though single readings scatter.
Valid outcomes are listed here; reply with one: active, inactive

Previously resolved entries follow.
- Molecule: "OC(c1ccccc1)(c1ccccc1)C1CCNCC1"
  Class Assignment: "inactive"
- Molecule: "O=C1NCN(c2ccccc2)C12CCN(CCCOc1ccc(F)cc1)CC2"
  Class Assignment: "active"
- Molecule: "COc1ccc(OC)c(CC(C)N)c1 (stereo not drawn)"
  Class Assignment: "inactive"
- Molecule: "CN1[C@@H]2CC[C@H]1CC(OC(=O)c1cc(Cl)cc(Cl)c1)C2 (stereo partly drawn)"
  Class Assignment: "inactive"
- Molecule: "CN(C)CCc1c[nH]c2cccc(O)c12"
  Class Assignment: "inactive"

Per the records of this test, what outcome belongs to CNC(=O)NC(O)C(Cl)(Cl)Cl (stereo not drawn) ? inactive

Per the records of this test, what outcome belongs to `CNC(=O)Oc1cccc2ccccc12` ? inactive

Per the records of this test, what outcome belongs to `O=C(N[C@@H]1N=C(c2ccccc2F)c2cccc3c2N(CC3)C1=O)c1cc2ccccc2[nH]1` ? inactive

Per the records of this test, what outcome belongs to `COc1ccc(C(=O)N2CCCC2=O)cc1` ? inactive

====

# Test system: DIV14
# Experimental Protocol: qHTS profiling for inhibitors of Plasmodium falciparum proliferation (AID 504749); note: nearly all actives have a fitted effect of over 60% in size
# Measurement Context: P. falciparum in erythrocytes, SYBR Green DNA, 72 h; series mostly up to 28.7 µM
Records with an inconclusive call do not appear. Active and inactive are the calls of the source. The call rests on the fitted dose curve; in most records, active means well fitted inhibition curve with a large enough effect; inconclusive means small, poorly fitted or top-dose-only effect; inactive means flat fitted curve, though single readings scatter.
Valid outcomes are listed here; reply with one: active, inactive

- Compound Structure String: "C[C@H]1C(=O)O[C@@H]2CCN3CC=C(COC(=O)[C@](C)(O)[C@]1(C)O)[C@H]23"
  Target: "DIV14"
  Class Assignment: "inactive"

Per the records of this test, what outcome belongs to `CCCCCCCCC(=O)NCc1ccc(O)c(OC)c1` ? inactive

Per the records of this test, what outcome belongs to `C[C@]12Cc3nonc3C[C@@H]1CC[C@@H]1[C@@H]2CC[C@@]2(C)[C@H]1CC[C@]2(C)O` ? inactive

Per the records of this test, what outcome belongs to `CN(C)C(=S)SSC(=S)N(C)C` ? active

Per the records of this test, what outcome belongs to `CCCCCCCCCCCC[N+](C)(C)CCOc1ccccc1` ? active

Per the records of this test, what outcome belongs to `CCN(Cc1ccc(Cl)nc1)/C(=C/[N+](=O)[O-])NC` ? inactive

====

# Measurement Context: Ebola virus entry assay, blue channel fluorescence
Calls of active or inactive are those of the source.
Valid outcomes are listed here; reply with one: active, inactive

Previously resolved entries follow.
- Molecule: "Cc1ccc(Nc2c(F)cccc2Cl)c(CC(=O)O)c1"
  Class Assignment: "inactive"
- Molecule: "Cc1cc(C(C)(C)C)c(O)c(C(C)(C)C)c1"
  Class Assignment: "inactive"
- Molecule: "Cc1ccc(C(=O)Nc2ccc(S(=O)(=O)O)c3cc(S(=O)(=O)O)cc(S(=O)(=O)O)c23)cc1NC(=O)c1cccc(NC(=O)Nc2cccc(C(=O)Nc3cc(C(=O)Nc4ccc(S(=O)(=O)O)c5cc(S(=O)(=O)O)cc(S(=O)(=O)O)c45)ccc3C)c2)c1"
  Class Assignment: "active"
- Molecule: "Cc1cc(C)c(/C=C2\\C(=O)Nc3ccccc32)[nH]1"
  Class Assignment: "inactive"
- Molecule: "C#C[C@]1(OC(C)=O)CC[C@H]2[C@@H]3CCC4=C[C@@H](OC(C)=O)CC[C@@H]4[C@H]3CC[C@@]21C"
  Class Assignment: "inactive"

Per the records of this test, what outcome belongs to `CNc1c2c(nn1C)CCCC2` ? inactive

Per the records of this test, what outcome belongs to `C[C@@H]1C[C@H]2[C@@H]3CCC4=CC(=O)C=C[C@]4(C)[C@@]3(F)[C@@H](O)C[C@]2(C)[C@@]1(O)C(=O)COC(=O)c1ccncc1` ? inactive

Per the records of this test, what outcome belongs to Clc1ccc(C(OCCN2CCCCC2)c2ccccc2)cc1 (stereo not given) ? active

Per the records of this test, what outcome belongs to `CN1CCC(=C2c3ccccc3CC(=O)c3sccc32)CC1` ? active

====

# Measurement Context: Ebola virus entry assay, ratio channel
Active and inactive are the calls of the source.
Valid outcomes are listed here; reply with one: 1 for active, 0 for inactive

- Compound Structure String: "CCNC(=O)NCCCOc1cccc(CN2CCCCC2)c1"
  Class Assignment: 0
- Compound Structure String: "C[n+]1cc2c3c(ccc2c2ccc4cc5c(cc4c21)OCO5)OCO3"
  Class Assignment: 1
- Compound Structure String: "C[C@@H]1CC[C@H]2[C@@H](C)C(=O)O[C@@H]3O[C@@]4(C)CC[C@@H]1[C@]32OO4"
  Class Assignment: 0

Per the records of this test, what outcome belongs to `C[C@]12CC[C@@H]3c4ccc(O)cc4CC[C@H]3[C@@H]1C[C@@H](O)[C@@H]2O` ? 0

Per the records of this test, what outcome belongs to `CC(=O)Nc1cccc(O)c1` ? 0

Per the records of this test, what outcome belongs to `NC(=O)Cc1cccc(C(=O)c2ccccc2)c1N` ? 0

Per the records of this test, what outcome belongs to `CCCCOc1ccc(C(=O)CCN2CCCCC2)cc1` ? 1

Per the records of this test, what outcome belongs to `CCCc1ncc(C(=O)O)s1` ? 0

Per the records of this test, what outcome belongs to `CCCCN(CCN(CCCC)C(=O)N1CCOCC1)C(=O)N1CCOCC1` ? 0
